system: NCI/ADR-RES ovarian; assay: NCI tumour cell line growth inhibition, 48 h
assay-readout: TGI (µM)

* O=c1c2cc(Cl)ccc2oc2ccc(OCCCCCN3CCCCC3)cc12 | 24.8
* O=C1c2ccccc2-c2c1c1ccccc1c(=O)n2CCCNCCCn1ccnc1 | 4.45
* COC(=O)c1c(O)ccc2c1c1c(n2Cc2ccccc2)C(=O)c2ccccc2C1=O | 28.8
* CC[C@](O)(CC(=O)O[C@H]1C(=O)O[C@@H]2C[C@H]3C(C)=CC(=O)[C@@H](O)[C@]3(C)[C@H]3[C@@]4(O)OC[C@]32[C@@H]1[C@@H](C)[C@H]4O)C(C)C | 0.242
